Test system: Acinetobacter baumannii ATCC17961
Test: Antimicrobial susceptibility testing: 90% growth inhibitory concentration (IC90) determination in Iso-Sensitest broth, OD600 growth
Format: cell-based
Conditions: Acinetobacter baumannii, ATCC17961, 16 h, strain ATCC 17961, OD600 growth over 16 h, read-out: A. baumannii ATCC 17961 IC90

COMPOUND | UNITS | IC90
CNC(=O)c1ccc(Nc2nccn3c(-c4cn(C(F)F)nc4C(F)(F)F)cnc23)cc1Cl [Example 10] | nM | 458
CCc1cc(Nc2nccn3c(-c4cn(CC(F)F)nc4C(F)(F)F)cnc23)ccc1C(=O)NCCNC(=O)[C@@H]1C[C@@H](O)CN1 [Example 667] | nM | 294
Cc1cc(Nc2nccn3c(-c4cn(CC(F)F)nc4C(F)(F)F)cnc23)cc(F)c1C(=O)N[C@H](C)CNC(=O)CN [Example 673] | nM | 314
O=C(N[C@@H]1CCNC1)c1ccc(Nc2nccn3c(-c4c[nH]nc4C(F)(F)F)cnc23)cc1Cl [Example 379] | nM | 576

====

System: Acinetobacter baumannii ATCC17961
Assay: Antimicrobial susceptibility testing: 90% growth inhibitory concentration (IC90) determination in Iso-Sensitest broth, OD600 growth
Type: cell-based
Settings: Acinetobacter baumannii, ATCC17961, 16 h, strain ATCC 17961, OD600 growth over 16 h, read-out: A. baumannii ATCC 17961 IC90
Binary call on IC90 with cut-off 1000 nM: strictly below means yes, and equality or higher means no.

COMPOUND | ASSIGNED CATEGORY
NC1CCN(C(=O)CNC(=O)c2ccc(Nc3nccn4c(-c5c[nH]nc5C(F)(F)F)cnc34)cc2Cl)CC1 [Example 136] | no
CCc1cc(Nc2nccn3c(-c4cn(CC(F)F)nc4C(F)(F)F)cnc23)ccc1C(=O)NCCCCCN(CC(=O)O)CC1CNC1 [Example 829] | yes
CCc1cc(Nc2nccn3c(-c4cn(CCF)nc4C(F)F)cnc23)ccc1C(=O)N1CCN(C(=O)[C@@H]2C[C@@H](O)CN2)CC1 [Example 795] | no
CCc1cc(Nc2nccn3c(-c4c[nH]nc4C(F)(F)F)cnc23)ccc1C(=O)NCCNC(=O)N1CC[C@@H](N)C1 [Example 517] | yes
N#CCn1cc(-c2cnc3c(Nc4ccc(C(=O)N5CC(NC(=O)C6CCNCC6)C5)c(Cl)c4)nccn23)c(C(F)(F)F)n1 [Example 170] | yes
CCc1cc(Nc2nccn3c(-c4cn(COC)nc4C(F)F)cnc23)ccc1C(=O)N1CCNCC1 [Example 801] | no
N#CCn1cc(-c2cnc3c(Nc4ccc(C(=O)N5CCC(NC(=O)[C@@H]6C[C@@H](O)CN6)CC5)c(Cl)c4)nccn23)c(C(F)(F)F)n1 [Example 143] | yes

====

Tested on: Acinetobacter baumannii ATCC17961
Test: Antimicrobial susceptibility testing: 90% growth inhibitory concentration (IC90) determination in Iso-Sensitest broth, OD600 growth
Type: cell-based
Conditions: Acinetobacter baumannii, ATCC17961, 16 h, strain ATCC 17961, OD600 growth over 16 h, read-out: A. baumannii ATCC 17961 IC90
Experimental: Antimicrobial Susceptibility Testing: 90% Growth Inhibitory Concentration (IC90) Determination The in vitro antimicrobial activity of the compounds was determined according to the following procedure: The assay used a 10-points Iso-Sensitest broth medium to measure quantitatively the in vitro activity of the compounds against Acinetobacter baumannii ATCC17961 or ATCC17968. […]
READOUT LABEL: IC90 (nM)

COMPOUND | MEASURED VALUE
CCc1cc(Nc2nccn3c(-c4cn(CC#N)nc4C(F)(F)F)cnc23)ccc1C(=O)NCC(=O)NCC1CCNC1 (stereo not drawn) | 313
C#CC(C)n1cc(-c2cnc3c(Nc4ccc(C(=O)N5CCN(C(=O)[C@H](N)C(C)C)CC5)c(CC)c4)nccn23)c(C(F)F)n1 (mixture of isomers) | 2740
CCc1cc(Nc2nccn3c(-c4cn(CC#N)nc4C(F)(F)F)cnc23)ccc1C(=O)N[C@H](C)CNC(=O)[C@@H]1CCCN1 | 263

====

Tested on: Acinetobacter baumannii ATCC17961
Test: Antimicrobial susceptibility testing: 90% growth inhibitory concentration (IC90) determination in Iso-Sensitest broth, OD600 growth
Assay type: cell-based
Conditions: Acinetobacter baumannii, ATCC17961, 16 h, strain ATCC 17961, OD600 growth over 16 h, read-out: A. baumannii ATCC 17961 IC90

COMPOUND | IC90, nM
CCc1cc(Nc2nccn3c(-c4cn(CC(C)CO)nc4C(F)(F)F)cnc23)ccc1C(=O)NCCOCCN (stereo not shown) | 225
CCc1cc(Nc2nccn3c(-c4cn(CC(F)F)nc4C(F)(F)F)cnc23)ccc1C(=O)NCCOCCN1CCCC1 | 144
CCc1cc(Nc2nccn3c(-c4cn(CC(F)F)nc4C(F)(F)F)cnc23)ccc1C(=O)NCC(=O)NCC1CCCN1 (stereo not shown) | 267
Cc1cc(Nc2nccn3c(-c4cn(CC(F)F)nc4C(F)(F)F)cnc23)ccc1C(=O)NCCOCCN | 222
CCc1cc(Nc2nccn3c(-c4cn(CC(F)F)nc4C(F)(F)F)cnc23)ccc1C(=O)N[C@H](C)CN | 239
C#CCn1cc(-c2cnc3c(Nc4ccc(C(=O)N5CCN(C(=O)[C@H](N)C(C)C)CC5)c(CC)c4)nccn23)c(C(F)F)n1 | 978
CCc1cc(Nc2nccn3c(-c4cn(CC(F)F)nc4C(F)(F)F)cnc23)ccc1C(=O)N1CCC(CN)CC1 | 209

====

System: Acinetobacter baumannii ATCC17961
Test: Antimicrobial susceptibility testing: 90% growth inhibitory concentration (IC90) determination in Iso-Sensitest broth, OD600 growth
Format: cell-based
Conditions: Acinetobacter baumannii, ATCC17961, 16 h, strain ATCC 17961, OD600 growth over 16 h, read-out: A. baumannii ATCC 17961 IC90
READOUT LABEL: IC90

COMPOUND | READOUT LABEL | MEASURED VALUE
CCc1cc(Nc2nccn3c(-c4cn(CC#N)nc4C#N)cnc23)ccc1C(=O)NCCOCCN [Example 830] | IC90 | 0.58 µM
C#CCNC(=O)c1c(C)cc(Nc2nccn3c(-c4c[nH]nc4C(F)(F)F)cnc23)cc1F [Example 43] | IC90 | 1.95 µM
C=CCn1cc(-c2cnc3c(Nc4ccc(C(=O)N5CCC(CN)CC5)c(CC)c4)nccn23)c(C(F)(F)F)n1 [Example 53] | IC90 | 0.157 µM
NC12CC(NC(=O)c3ccc(Nc4nccn5c(-c6c[nH]nc6C(F)(F)F)cnc45)cc3Cl)(C1)C2 [Example 105] | IC90 | 1.56 µM

====

Reported IC90 values follow for various compounds
Tested on: Acinetobacter baumannii ATCC17961
Test: Antimicrobial susceptibility testing: 90% growth inhibitory concentration (IC90) determination in Iso-Sensitest broth, OD600 growth
Assay type: cell-based
Conditions: Acinetobacter baumannii, ATCC17961, 16 h, strain ATCC 17961, OD600 growth over 16 h, read-out: A. baumannii ATCC 17961 IC90
Where a name gives a salt, the structure may show the parent alone.
READOUT LABEL: IC90 (µM)

COMPOUND | READOUT LABEL | UNITS | MEASURED VALUE
C#CCn1cc(-c2cnc3c(Nc4ccc(C(=O)NCC)c(CC)c4)nccn23)c(C(F)(F)F)n1 | IC90 | µM | 0.231
N#CCn1cc(-c2cnc3c(Nc4ccc(C(=O)N5CC6(C5)CN(C(=O)[C@@H]5CCCN5)C6)c(Cl)c4)nccn23)c(C(F)(F)F)n1 | IC90 | µM | 0.222
CCc1cc(Nc2nccn3c(-c4c[nH]nc4C(F)(F)F)cnc23)ccc1C(=O)N1CCN(C(=O)C2(O)CCNCC2)CC1 [Example 355, hydrochloride] | IC90 | µM | 1.3
Cc1cc(Nc2nccn3c(-c4cn(CC#N)nc4C(F)(F)F)cnc23)cc(F)c1C(=O)N1CCN(C(=O)[C@H]2C[C@@H](N)C2)CC1 | IC90 | µM | 0.38
CCc1cc(Nc2nccn3c(-c4c[nH]nc4C(F)(F)F)cnc23)ccc1C(=O)NCCNC(=O)[C@@H]1CCCN1 | IC90 | µM | 0.47
CCc1cc(Nc2nccn3c(-c4cn(CC#N)nc4C(F)(F)F)cnc23)ccc1C(=O)NCCCNC(=O)N1CC[C@@H](N)C1 | IC90 | µM | 0.34
CCc1cc(Nc2nccn3c(-c4cn(CC#N)nc4C(F)(F)F)cnc23)ccc1C(=O)NCCOC[C@H](C)N | IC90 | µM | 0.241
Cc1cc(Nc2nccn3c(-c4cn(CC(F)F)nc4C(F)(F)F)cnc23)cc(F)c1C(=O)NCCOCCN | IC90 | µM | 0.12
Cc1cc(Nc2nccn3c(-c4c[nH]nc4C(F)(F)F)cnc23)ccc1C(=O)N1CCN(C(=O)[C@H]2CNC[C@H](O)C2)CC1 (racemic) [Example 439, hydrochloride] | IC90 | µM | 0.834
N[C@@H]1CC[C@H](C(=O)N2CCN(C(=O)c3ccc(Nc4nccn5c(-c6cn(CC(F)F)nc6C(F)(F)F)cnc45)cc3F)CC2)C1 [Example 806, hydrochloride] | IC90 | µM | 0.25
CCc1cc(Nc2nccn3c(-c4cn(CC#N)nc4C(F)(F)F)cnc23)ccc1C(=O)NCCNC(=O)[C@@H]1CC[C@H](N)C1 [Example 494, formate] | IC90 | µM | 0.157
CCc1cc(Nc2nccn3c(-c4cn(CC(F)F)nc4C(F)F)cnc23)ccc1C(=O)N1CCN(C(=O)CN)CC1 | IC90 | µM | 0.903
Cc1cc(Nc2nccn3c(-c4cn(CC(F)F)nc4C(F)(F)F)cnc23)cc(F)c1C(=O)N[C@H](C)CNC(=O)[C@@H]1C[C@@H](O)CN1 | IC90 | µM | 0.557
